method-notes: LogP (Table 1)
Type: physicochemical
attribute-measured: LogP

Consider the reported LogP for these compounds:
{"compound": "Cn1cc(C(=S)N(Cc2ccccc2I)C2CC2)c(Cl)n1 [Compound 51]", "LogP": 3.73}
{"compound": "Cn1nc(C(=S)N(Cc2cc(Cl)ccc2C(F)(F)F)C2CC2)c(C(F)(F)F)n1 [Compound 47]", "LogP": 4.94}
{"compound": "Cn1cc(C(=S)N(Cc2c(Cl)cc(OC(F)(F)F)cc2Cl)C2CC2)c(C(F)(F)F)n1 [Compound 45]", "LogP": 4.9}
{"compound": "Cc1ccc(C(F)(F)F)c(CN(C(=S)c2c(C)nn(C)c2F)C2CC2)c1 [Compound 16]", "LogP": 4.06}
{"compound": "Cc1nn(C)c(F)c1C(=S)N(Cc1ccc(C(F)(F)F)cc1Cl)C1CC1 [Compound 8]", "LogP": 4.14}
{"compound": "Cc1nn(C)c(F)c1C(=S)N(Cc1ccc(Oc2ccccc2)cc1)C1CC1 [Compound 5]", "LogP": 4.06}

[a] Cn1cc(C(=S)N(Cc2ccc(C(F)(F)F)cc2Cl)C2CC2)c(C(F)F)n1 [Compound 35]
[b] Cc1oc(C(C)(C)C)cc1C(=S)N(Cc1ccccc1I)C1CC1 [Compound 54]
**Q:** Thinking about recorded LogP values, which is higher, a or b ? Give the label of your selection.
**A:** b

[A] Cn1nc(C(=S)N(Cc2ccc(Cl)cc2Cl)C2CC2)c(C(F)(F)F)n1 [Compound 48]
[B] Cn1cc(C(=S)N(Cc2ccccc2Br)C2CC2)c(C(F)F)n1 [Compound 31]
**Q:** Given the listed items, does A or B have the lesser reported LogP? Give the label of your selection.
**A:** B
(B: 3.46, A: 4.95)

====

method-notes: LogP (Table 1)
Format: physicochemical
attribute-measured: LogP

{"compound": "Cn1cc(C(=S)N(Cc2ccccc2[Si](C)(C)C)C2CC2)c(C(F)F)n1", "LogP": 4.49}
{"compound": "CCc1nn(C)c(F)c1C(=S)N(Cc1ccc(C(F)(F)F)cc1Cl)C1CC1", "LogP": 4.54}
{"compound": "CCCc1nn(C)cc1C(=S)N(C1CC1)C(C)c1ccc(Cl)cc1Cl (racemic)", "LogP": 4.39}
{"compound": "Cn1cc(C(=S)N(Cc2cccc(OCc3ccccc3)c2)C2CC2)c(C(F)F)n1", "LogP": 4.06}

====

method-notes: LogP (Table 1)
Format: physicochemical
attribute-measured: LogP

{"compound": "Cc1nn(C)c(F)c1C(=S)N(Cc1ccccc1[Si](C)(C)C)C1CC1 [Compound 7]", "LogP": 4.64}
{"compound": "Cn1cc(C(=S)N(Cc2cc(Cl)ccc2C(F)(F)F)C2CC2)c(C(F)F)n1 [Compound 36]", "LogP": 4.01}
{"compound": "Cc1nn(C)c(F)c1C(=S)N(C1CC1)C(C)c1cccc(OCc2ccccc2)c1 (racemic) [Compound 17]", "LogP": 4.36}
{"compound": "CCc1nn(C)cc1C(=S)N(Cc1ccccc1I)C1CC1 [Compound 53]", "LogP": 3.53}
{"compound": "Cc1nn(C)c(F)c1C(=S)N(Cc1ccccc1I)C1CC1 [Compound 12]", "LogP": 3.68}
{"compound": "Cc1nn(C)c(F)c1C(=S)N(Cc1ccccc1C(C)C)C1CC1 [Compound 14]", "LogP": 3.89}
{"compound": "Cc1nn(C)c(F)c1C(=S)N(Cc1ccccc1C1CCCCC1)C1CC1 [Compound 11]", "LogP": 5.17}
{"compound": "Cc1nn(C)c(F)c1C(=S)N(Cc1cc(C(F)(F)F)ccc1Cl)C1CC1 [Compound 9]", "LogP": 3.96}
{"compound": "Cc1nn(C)c(F)c1C(=S)N(Cc1ccc(-c2ccc(F)c(Cl)c2)cc1F)C1CC1 [Compound 2]", "LogP": 4.73}
{"compound": "Cn1cc(C(=S)N(Cc2c(Cl)cccc2C(F)(F)F)C2CC2)c(Cl)n1 [Compound 50]", "LogP": 3.83}
{"compound": "Cc1ccc(C(F)(F)F)c(CN(C(=S)c2cn(C)nc2C(F)F)C2CC2)c1 [Compound 32]", "LogP": 4.01}
{"compound": "Cn1cc(C(=S)N(Cc2cc(Cl)ccc2Br)C2CC2)c(C(F)F)n1 [Compound 42]", "LogP": 3.89}
{"compound": "Cc1nn(C)c(F)c1C(=S)N(Cc1ccc(Oc2ccc(Cl)cc2Cl)cc1)C1CC1 [Compound 18]", "LogP": 5}
{"compound": "Cc1nn(C)c(F)c1C(=S)N(C1CC1)C(C)c1cc(Cl)ccc1Cl (racemic) [Compound 19]", "LogP": 4.04}
{"compound": "Cc1nn(C)c(F)c1C(=S)N(C1CC1)C(C)c1ccc(Cl)cc1Cl (racemic) [Compound 15]", "LogP": 4.14}
{"compound": "Cc1nn(C)c(F)c1C(=S)N(Cc1ccc(Oc2ccc(Cl)cc2)cc1)C1CC1 [Compound 1]", "LogP": 4.59}
{"compound": "CCCC(c1ccc(Cl)cc1Cl)N(C(=S)c1c(C)nn(C)c1F)C1CC1 (racemic) [Compound 10]", "LogP": 4.97}
{"compound": "Cn1cc(C(=S)N(Cc2cc3c(cc2Cl)OCO3)C2CC2)c(C(F)(F)F)c1 [Compound 44]", "LogP": 4.01}
{"compound": "Cn1cc(C(=S)N(Cc2c(Cl)cccc2C(F)(F)F)C2CC2)c(C(F)F)n1 [Compound 34]", "LogP": 3.71}
